target: EGFR (L858R & T790M) (Homo sapiens, UniProt P00533, L858R/T790M); construct: GST; experiment: EGFR (L858R & T790M) inhibition assay, HTRF method; settings: biochemical HTRF; EGFR (T790M/L858R) 2.5 nM, ATP 5 μM, 60 min room temperature
Sequence (P00533 25-1210 T790M/L858R): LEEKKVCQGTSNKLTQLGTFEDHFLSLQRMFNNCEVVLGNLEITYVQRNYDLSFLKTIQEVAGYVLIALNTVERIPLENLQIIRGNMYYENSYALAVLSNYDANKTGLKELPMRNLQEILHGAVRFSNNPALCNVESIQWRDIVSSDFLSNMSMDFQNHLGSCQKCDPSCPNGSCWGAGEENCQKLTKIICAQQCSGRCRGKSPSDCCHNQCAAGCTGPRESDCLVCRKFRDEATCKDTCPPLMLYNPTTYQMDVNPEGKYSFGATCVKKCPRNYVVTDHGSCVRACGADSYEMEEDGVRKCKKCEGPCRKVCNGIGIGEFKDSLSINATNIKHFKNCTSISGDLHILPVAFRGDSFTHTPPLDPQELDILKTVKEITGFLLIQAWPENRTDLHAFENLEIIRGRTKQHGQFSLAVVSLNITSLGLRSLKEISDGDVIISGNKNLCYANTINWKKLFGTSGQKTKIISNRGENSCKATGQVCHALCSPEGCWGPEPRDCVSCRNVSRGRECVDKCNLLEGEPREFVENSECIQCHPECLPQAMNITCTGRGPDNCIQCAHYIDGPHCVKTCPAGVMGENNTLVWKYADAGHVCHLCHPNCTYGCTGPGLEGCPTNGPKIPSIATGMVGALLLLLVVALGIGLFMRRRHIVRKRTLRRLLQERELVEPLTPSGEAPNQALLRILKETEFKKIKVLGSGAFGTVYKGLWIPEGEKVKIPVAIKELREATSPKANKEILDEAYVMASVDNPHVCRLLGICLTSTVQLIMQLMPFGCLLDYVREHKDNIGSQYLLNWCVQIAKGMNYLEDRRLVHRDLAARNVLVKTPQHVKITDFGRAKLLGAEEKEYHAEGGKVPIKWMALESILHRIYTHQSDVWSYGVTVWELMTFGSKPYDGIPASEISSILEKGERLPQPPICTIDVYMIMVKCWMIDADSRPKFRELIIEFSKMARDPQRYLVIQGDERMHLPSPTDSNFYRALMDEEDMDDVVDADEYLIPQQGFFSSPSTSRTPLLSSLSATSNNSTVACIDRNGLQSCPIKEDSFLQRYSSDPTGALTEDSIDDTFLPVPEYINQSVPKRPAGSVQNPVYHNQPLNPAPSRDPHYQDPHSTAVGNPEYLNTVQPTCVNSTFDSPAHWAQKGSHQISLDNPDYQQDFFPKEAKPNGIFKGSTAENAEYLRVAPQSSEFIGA
experimental.readout: IC50

| compound | measured.on | IC50 |
| --- | --- | --- |
| CN(C)C/C=C/C(=O)N1CCCC(Nc2nc(Nc3cnn(C)c3)ncc2Cl)C1 (single isomer, unassigned) [II-3 (Enantiomer 1)] | EGFR (L858R & T790M) (Homo sapiens, UniProt P00533, L858R/T790M) | > 100 nM |
| C=CC(=O)N(C)c1ccc(F)c(Nc2nc(Nc3cnn(C)c3)ncc2Cl)c1 [Compound I-110] | EGFR (L858R & T790M) (Homo sapiens, UniProt P00533, L858R/T790M) | > 100 nM |
| C=C(C)C(=O)Nc1cccc(Nc2nc(Nc3cnn(C4CCN(C)CC4)c3)ncc2Cl)c1 [Compound I-9] | EGFR (L858R & T790M) (Homo sapiens, UniProt P00533, L858R/T790M) | > 100 nM |
| C=CS(=O)(=O)Nc1cc(Nc2nc(Nc3cnn(C4CCN(C)CC4)c3)ncc2Cl)ccc1F [Compound I-64] | EGFR (L858R & T790M) (Homo sapiens, UniProt P00533, L858R/T790M) | 10 to 100 nM |
| C=CC(=O)Nc1cccc(Nc2nc(Nc3cc(COC)n(C)n3)ncc2Cl)c1 [Compound I-24] | EGFR (L858R & T790M) (Homo sapiens, UniProt P00533, L858R/T790M) | 10 to 100 nM |
| C=CC(=O)Nc1ccc(F)c(Nc2nc(Nc3cnn(C)c3)ncc2Cl)c1 [Compound I-39] | EGFR (L858R & T790M) (Homo sapiens, UniProt P00533, L858R/T790M) | < 10 nM |
| C=CC(=O)Nc1cccc(Nc2nc(Nc3cnn(C4CCC(O)C4)c3)ncc2Cl)c1 (centres unmarked) [Compound I-36] | EGFR (L858R & T790M) (Homo sapiens, UniProt P00533, L858R/T790M) | 10 to 100 nM |

Now examine the next entry.
What does the data say about its IC50? Entry: C=CC(=O)Nc1cccc(Oc2nc(Nc3cc4n(n3)CCN(C)C4)ncc2Cl)c1 [Compound I-78] 10 to 100 nM

The measured values listed here are drawn from patent US10273224B2.
